Biological target: T1, human GHR (as in Tables 1 and 2) (human, UniProt P10912 49-253, limits assumed)
T1 sequence: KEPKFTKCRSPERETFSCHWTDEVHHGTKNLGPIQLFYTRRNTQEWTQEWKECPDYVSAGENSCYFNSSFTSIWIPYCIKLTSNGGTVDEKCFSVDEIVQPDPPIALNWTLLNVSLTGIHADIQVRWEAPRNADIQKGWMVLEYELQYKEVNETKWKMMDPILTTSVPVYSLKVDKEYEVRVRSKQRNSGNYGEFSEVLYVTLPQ
Assay: Biacore, 37 C (asterisk)
value.type: Kd (nM)
Give the number; nM is assumed, so skip it.

Exercise: Give Kd for SS1 Fab (Fab, V domains shown, Fab) VH: EVQLVESGGGLVKPGGSLRLSCAASGFTFSDAWMDWVRQAPGKGLEWVAEIRSKANYHATYYAESVKGRFTISRDDSKNTLYLQMNSLKTEDTAVYYCTLIRDYWGQGTLVTVSS VL: EIVLTQSPGTLSLSPGERATLSCTATSSVSSSYLNWYQQKPGQAPRLLIYSTSNLASGIPDRFSGSGSGTDFTLTISRLEPEDFAVYYCHQYHRSTPTFGGGTKVEIK
Key: 1.56

Exercise: Give Kd for SS3 Fab (Fab, V domains shown, Fab) VH: EVQLVESGGGLVKPGGSLRLSCAASGFTFSDAWMDWVRQAPGKGLEWVAEIRSKANNHATYYAESVKGRFTISRDDSKNTLYLQMNSLKTEDTAVYYCTLFRDYWGQGTLVTVSS VL: EIVLTQSPGTLSLSPGERATLSCTATSSVSSSYLNWYQQKPGQAPRLLIYSTSNLASGIPDRFSGSGSGTDFTLTISRLEPEDFAVYYCHQYHRFTPTFGGGTKVEIK
Key: 1.99

Exercise: Give Kd for TM9 Fab (Fab, V domains shown, Fab) VH: EVQLVESGGGLVKPGGSLRLSCAASGFTFSDAWMDWVRQAPGKGLEWVAEIRSKANYHATYYAESVKGRFTISRDDSKNTLYLQMNSLKTEDTAVYYCTLIRDYWGQGTLVTVSS VL: EIVLTQSPGTLSLSPGERATLSCTATSSVSSSYLHWYQQKPGQAPRLLIYSTSNLASGIPDRFSGSGSGTDFTLTISRLEPEDFAVYYCHQYHRGTPTFGGGTKVEIK
Key: 3.3

Exercise: Give Kd for TM1 Fab (Fab, V domains shown, Fab) VH: EVQLVESGGGLVKPGGSLRLSCAASGFTFSDAWMDWVRQAPGKGLEWVAEIRSKANYHATYYAESVKGRFTISRDDSKNTLYLQMNSLKTEDTAVYYCTLIRDYWGQGTLVTVSS VL: EIVLTQSPGTLSLSPGERATLSCTATSSVSSWYLHWYQQKPGQAPRLLIYSTSNLASGIPDRFSGSGSGTDFTLTISRLEPEDFAVYYCHQYHRSTPTFGGGTKVEIK
Key: 3.4
